Just for reference, patent US9221809B2 is where these values come from.

Catalogue of IC50 readings, one per entry.
Biological target: IRAK4 (Homo sapiens (Human))
Sequence (Q9NWZ3 whole entry): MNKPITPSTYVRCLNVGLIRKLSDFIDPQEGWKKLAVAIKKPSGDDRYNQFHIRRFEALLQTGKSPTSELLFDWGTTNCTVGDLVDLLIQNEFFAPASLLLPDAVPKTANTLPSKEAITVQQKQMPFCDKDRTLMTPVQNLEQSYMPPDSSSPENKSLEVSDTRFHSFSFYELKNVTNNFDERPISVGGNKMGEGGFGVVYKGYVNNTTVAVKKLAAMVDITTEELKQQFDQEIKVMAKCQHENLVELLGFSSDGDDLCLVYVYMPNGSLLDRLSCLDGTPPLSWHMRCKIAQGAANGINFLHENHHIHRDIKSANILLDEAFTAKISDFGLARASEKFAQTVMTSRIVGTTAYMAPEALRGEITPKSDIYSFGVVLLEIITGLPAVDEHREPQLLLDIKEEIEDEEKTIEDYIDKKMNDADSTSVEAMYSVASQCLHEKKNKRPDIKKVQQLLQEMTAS
Test: IRAK4 kinase activity, IMAP fluorescence polarization assay
Assay type: biochemical
Details: 100 μM ATP; read-out: IC50
Counter-ions that a name gives are not always drawn.
State just the number; it will be interpreted in nM.

# annotated cases, reported IC50 shown
MOLECULE	IC50 (nM)
O=c1[nH]c(N2CCC3(CCN(Cc4ccccc4)C3)C2)nc(N[C@@H]2CCCNC2)c1-c1nc2ccccc2s1 (stereo partly shown) [Example 327, trifluoroacetic acid]	27
O=c1[nH]c(N2CCOCC2)nc(NCCc2ncc[nH]2)c1-c1nc2ccccc2s1 [Example 264]	180
O=c1[nH]c(N2CCC3(CCN(c4ccccc4)C3)C2)nc(N[C@@H]2CCCNC2)c1-c1nc2ccccc2s1 (stereo partly shown) [Example 334]	21
CN(Cc1ccccc1)c1nc(N[C@@H]2CCCNC2)c(-c2nc3ccccc3s2)c(=O)[nH]1 [Example 307]	310
O=c1[nH]c(N2CCCCC2)nc(N[C@@H]2CCCNC2)c1-c1nc2ccccc2s1 [Example 309, hydrochloride]	71

Input line: Could you tell me which IC50 is on file for O=c1[nH]c(N2CCOCC2)nc(NCCN2CCCC2)c1-c1ccc2ccccc2n1 [Example 279] ?
Output line: 4900

Input line: And what about the molecule O=c1[nH]c(N2CCOCC2)nc(NC2CNC2)c1-c1ccc2ccccc2n1 [Example 275] ?
Output line: 150
